Overview of recorded T/C for various molecules
test system: CD2F1 mice, L1210 leukemia ip, survival T/C; assay: NCI In Vivo Anticancer Drug Screen. Data for tumor model L1210 Leukemia (intraperitoneal) in CD2F1 (CDF1) mice; details: endpoint: mean survival time; dose: 100.0 mg/kg/injection; schedule: Q01DX001 (ip); vehicle: Klucel (hydroxypropylcellulose) (HPC); higher = longer survival
Toxic doses and inconclusive results are not listed.

O=C(Nc1ccccc1)Nc1ccc(N(CCCl)CCCl)cc1: 105 % of control

GET /value?item= C=CCS(=O)(=O)Cc1cccc(C)c1 &field=T/C returns 93 % of control

Looking up O=C(SSCCSSCCSSC(=O)N1CCOCC1)N1CCOCC1 , I found its T/C recorded as 93 % of control

Lab book: T/C of O=C(O)C1C=CC(C(=O)O)c2ccccc21 (centres undefined) noted as 91 % of control

For CCOC(=O)c1c(C)cc(C)cc1C the molecule record lists T/C as 102 % of control

For reference, reported T/C for Cc1cn(C2CC(O)C(COC(N)=O)O2)c(=O)[nH]c1=O (centres undefined) stands at 116 % of control

The molecule listed as COc1ccc2c(ccc3nc(C)[nH]c(=O)c32)c1 has a reported T/C of 90 % of control

// T/C lookup, molecule = Cc1ccc(N2CC(O)CSC2=Nc2ccccc2)cc1 (centres undefined) , result: 93 % of control

response.value for N#C/C(=C(\N)c1ccccc1)c1ccccc1 (field: T/C) = 93 % of control

* * *

Tested on: CD2F1 mice, L1210 leukemia ip, survival T/C
Test: NCI In Vivo Anticancer Drug Screen. Data for tumor model L1210 Leukemia (intraperitoneal) in CD2F1 (CDF1) mice
Settings: endpoint: mean survival time; dose: 100.0 mg/kg/injection; schedule: Q01DX009 (ip); vehicle: saline with Tween-80; higher = longer survival
Experimental: The antitumor activity of compounds was measured in mice bearing transplantable tumors. Survival or tumor size were measured and the results are expressed as the measurement made in the treated group (T) divided by the measurement made in the vehicle treated control group (C). The tumor model used in this assay is L1210 Leukemia (intraperitoneal) in CD2F1 (CDF1) mice
Inconclusive results and toxic doses are left out.
Measured quantity: T/C

Record excerpt, results attached:
C[Si]1(C)N(c2ccccc2)[Si](C)(C)N(c2ccccc2)[Si](C)(C)N1c1ccccc1: 105 % of control
O=[N+]([O-])c1cc(Cl)c(Cl)cc1Cl: 92 % of control
NC(=O)NC(CC(=O)O)C(=O)O (stereo unspecified): 96 % of control
CCC1(C)N=C(C)C(C)S1 (stereo unspecified): 89 % of control
O=C(O)CC1(c2ccccc2)OC(=O)c2ccccc21 (stereo unspecified): 96 % of control

Reported T/C ( O=C(Nc1cc(Cl)ccc1Cl)c1ccc(C(=O)Nc2cc(Cl)ccc2Cl)cc1 ) = 94 % of control

* * *

The reader will find reported T/C values listed item by item below.
test system: CD2F1 mice, L1210 leukemia ip, survival T/C; experiment: NCI In Vivo Anticancer Drug Screen. Data for tumor model L1210 Leukemia (intraperitoneal) in CD2F1 (CDF1) mice; settings: endpoint: mean survival time; dose: 50.0 mg/kg/injection; schedule: Q01DX005 (ip); vehicle: water; higher = longer survival
Inconclusive results and toxic doses are left out.

Example entries and their recorded answers appear below.
CN(N)c1nc2c(=O)[nH]cnc2n1C1OC(CO)C(O)C1O (centres undefined): 95 % of control
CC(C)=NNc1cc(N)nc2c1ncn2C1OC(CO)C(O)C1O (centres undefined): 90 % of control

# T/C of NC(=O)c1n[nH]c(C2OC(CO)C(O)C2O)n1 (centres undefined) = 94 % of control

The recorded T/C for entry CCOC(=O)C[Si](C)(C)C equals 104 % of control

* * *

Recorded measurements of T/C, one per entry
system: CD2F1 mice, L1210 leukemia ip, survival T/C; test: NCI In Vivo Anticancer Drug Screen. Data for tumor model L1210 Leukemia (intraperitoneal) in CD2F1 (CDF1) mice; conditions: endpoint: mean survival time; dose: 200.0 mg/kg/injection; schedule: Q01DX009 (ip); vehicle: saline; higher = longer survival
Inconclusive results and toxic doses are left out.

NC(Cc1cccc(NP(=S)(N2CC2)N2CC2)c1)C(=O)O (configuration not stated): 100 % of control
O=C1/C(=C/c2cccc([N+](=O)[O-])c2)CCc2ccccc21: 97 % of control
c1ccc2c(c1)Sc1cnccc1N2CC1CO1 (configuration not stated): 102 % of control
O=C(O)CS(=O)(=O)CC(=O)O: 93 % of control
Brc1c(Br)c(Br)c2n[nH]nc2c1Br: 108 % of control
C#CCP(=O)(OCC)OCC: 95 % of control

With those in mind, consider the next compound.
For this compound ( O=P(O)(O)OCC(O)CCl (configuration not stated) ), measured T/C is 92 % of control

* * *

system: CD2F1 mice, L1210 leukemia ip, survival T/C; assay: NCI In Vivo Anticancer Drug Screen. Data for tumor model L1210 Leukemia (intraperitoneal) in CD2F1 (CDF1) mice; details: endpoint: mean survival time; dose: 75.0 mg/kg/injection; schedule: Q01DX009 (ip); vehicle: saline; higher = longer survival
Inconclusive results and toxic doses are left out.
Catalogue of T/C values

NC(N)=N/N=C/c1cc(Cl)cc(Cl)c1O: 94 % of control
O/N=C\c1ccc2c(c1)OCCO2: 103 % of control
Nc1csc(N)n1: 98 % of control
O=C(O)C(=O)Cc1cccc(Cl)c1[N+](=O)[O-]: 103 % of control

Please look at the following compound next.
Reported T/C for CN1CCC(O)(O)C(Br)C1 (stereo not given) was 88 % of control

* * *

test system: CD2F1 mice, L1210 leukemia ip, survival T/C; assay: NCI In Vivo Anticancer Drug Screen. Data for tumor model L1210 Leukemia (intraperitoneal) in CD2F1 (CDF1) mice; conditions: endpoint: mean survival time; dose: 25.0 mg/kg/injection; schedule: Q04DX002 (ip); vehicle: saline with Tween-80; higher = longer survival
Inconclusive results and toxic doses are left out.
Measured quantity: T/C

Look over these answered cases.
CC(=O)OC1(c2cc(C(F)(F)F)cc(C(F)(F)F)c2)C2CCC1CC2 (stereo unspecified): 97 % of control
CSc1ncnc2c1C[P+](Cc1ccccc1)(c1ccccc1)CC2 (stereo unspecified): 101 % of control
c1ccc(-c2nnc(-c3ccccn3)o2)nc1: 102 % of control
O=[N+]([O-])c1cc(Cl)cc2c1NP(=S)(c1ccccc1)N2 (stereo unspecified): 91 % of control
NC(CSS(=O)(=O)O)=NCCc1cccs1: 105 % of control

Record for O=C(CCC(=O)Nc1ccc(S(=O)(=O)NCCO)cc1)Nc1ccc(S(=O)(=O)NCCO)cc1 under target or system CD2F1 mice, L1210 leukemia ip, survival T/C: T/C reported as 96 % of control

Item: COc1ccc(NC(=O)Nc2ccccc2Cl)c(OC)c1 | System: CD2F1 mice, L1210 leukemia ip, survival T/C | T/C: 94 % of control

Known value: CD2F1 mice, L1210 leukemia ip, survival T/C T/C of the molecule Cc1cc(C)c(NC2=NCCS2)cc1C equals 101 % of control

Bench note, CD2F1 mice, L1210 leukemia ip, survival T/C: CCN=C(N)C(N)=NCC , T/C reads 100 % of control

Measured on CD2F1 mice, L1210 leukemia ip, survival T/C, CC1(OO)OOC(=O)C1(C)C (stereo unspecified) has a documented T/C of 96 % of control

* * *

system: CD2F1 mice, L1210 leukemia ip, survival T/C; assay: NCI In Vivo Anticancer Drug Screen. Data for tumor model L1210 Leukemia (intraperitoneal) in CD2F1 (CDF1) mice; conditions: endpoint: mean survival time; dose: 25.0 mg/kg/injection; schedule: Q04DX003 (ip); vehicle: saline; higher = longer survival
Toxic doses and inconclusive results are not listed.
Measured quantity: T/C

CN(C)c1ccc(C(O)C(N)=O)cc1 (configuration not stated): 106 % of control

The reported T/C of the compound NC(N)=NCc1ccccc1 was 96 % of control

The recorded T/C for entry CN=C1N[N+]2=CCCCC2S1 (configuration not stated) equals 94 % of control

For record CC([NH-])C[NH-].O=C(O)C(O)C(O)C(O)C(O)CO.O=C(O)C(O)C(O)C(O)C(O)CO.[Pt+2] (configuration not stated) the listed T/C is 113 % of control

* * *

system: CD2F1 mice, L1210 leukemia ip, survival T/C; assay: NCI In Vivo Anticancer Drug Screen. Data for tumor model L1210 Leukemia (intraperitoneal) in CD2F1 (CDF1) mice; conditions: endpoint: mean survival time; dose: 100.0 mg/kg/injection; schedule: Q01DX001 (ip); vehicle: saline; higher = longer survival
Toxic doses and inconclusive results are not listed.
Measured quantity: T/C

COc1cccc2c1CCC13OC(O)CC21CCCC3C#N (stereo not given): 95 % of control
O=c1ccc2ccc(O)cc2o1: 103 % of control
CCCN(CCC)S(=O)(=O)c1ccc(NC(=O)Oc2cc(C)ccc2C(C)C)cc1: 100 % of control
NC(N)=NCCCC(NC(c1ccccc1)(c1ccccc1)c1ccccc1)C(=O)O (stereo not given): 88 % of control

Kindly review the next compound as well.
// T/C lookup, compound = CCC1Cc2c([nH]c(=O)n(-c3ccccc3)c2=O)O1 (stereo not given) , result: 95 % of control
